test system: K4 kissing-loop RNA reporter; test: apparent KD of K4 kissing-loop reporter; higher = weaker reporter binding; conditions: Eterna round: R107; input ligand: none;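 further: bound reporter read as fluorescence of individual clusters on recovered sequencing chips by microscopy, with normalized cluster intensities fitted with a binding model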
ENDPOINT: apparent KD of K4 kissing-loop reporter (µM)
Respond with the bare value in µM.

Query: apparent KD of K4 kissing-loop reporter for AGGAGUGAUGUUCCUACAUAGACGGUCCGACGAGGACCGGUACGGCCGCCACUCGCGUCCCAGUGAUGUUGGGAUUCAACGUACA [Exclusion Tryptophan A Gf 15] ?
Reply: 0.139

Query: apparent KD of K4 kissing-loop reporter for `UGUGUUUACCUGACUCAGUGAUGUUGAGAAGGAGCGUGCAAAGGCACAGGUAGGUCGCUCAACCUAAAUUCAGGUGAGCACUAAA` ?
Reply: 0.24

###

test system: MS2 coat protein; assay: apparent KD of MS2 coat protein; higher = weaker reporter binding; details: Eterna round: R107; input ligand: theophylline 2 mM
This section presents sequences with their documented apparent KD of MS2 coat protein values.
Respond with the bare value in nM.

• AAUAAACAUGAGGAUCACCCAUGUAGGGUGCGAGGACCGGUACGGCCGCCACUCGGGUGAAAACAUGAGGAUCACCCAUGUAAAA [Mat - Exclusion - Trytophan A - D23] = 220
• UGUAUGGACUGAAGGAGCGGUUGAUAACAUGAGCAUCAGCCAUGUAAUAAGGCGAAAGCCAACCAGGUAGGUCGCAGUCCAUACU = 9.11
• UUUCAGUGGACGGCCGCCACUGAAGUCGAUACAAUCAUGUAGAACAUGAGGAUCACCCAUGUAGUCAGGACCGGGUCCAAUGACU [Tryp B SS t3] = 22.8
• ACCGCGGUAUCGGCCGCCACUUGUGGGUUAAAUCUGGUACAUGAGGAUCACCCAUGUGUCUCCUCGAGGACCGGGAUAGCGUGAC [Geaner] = 211
• ACUAGGCUCGGAAACGAGCCUAGGACAGAAGGAGCGUGGAUUAACACAGGUAGGUCGCUGACAUGAGGAUCACCCAUGUAUUUAU [SSAA #5] = 25.6

Query: Observed apparent KD of MS2 coat protein on MS2 coat protein for CAUAUAUAUUGAAGGAGCGUCGAAAAUGGGUAAACAUGAGGAUCACCCAUGUAAAGGGAACGACAGGUAGGUCGCAAUAUAUAUG [AstromonsSSArgB#4] , please.
Reply: 177

Query: Observed apparent KD of MS2 coat protein on MS2 coat protein for AACAUGAGGAUCACCCAUGUGUCCUCGAAACGAGGACCGGUACGGCCGCCACUCGAAUAAGGUGUUGACGAAAAGUCAGCACCAA [Mat - Exclusion - Trytophan A - D17] , please.
Reply: 338

Query: Observed apparent KD of MS2 coat protein on MS2 coat protein for GCUAGGUCUACGGCCGCCACUAGACGUGGGUAAGACAUGAGGAUCACCCAUGUACUACAGGCGAAUAGGACCGGGUAGACCUAGC [SSTB NP+V+V2 #12 Same Structure] , please.
Reply: 46.1

Query: Observed apparent KD of MS2 coat protein on MS2 coat protein for ACCUGUACGAAAAGUGCAGGACACGGAAUACGAGGACCGGUACGGCCGCCACUCGGAUAAAACCUGAGGAUCACCCUGGUCCGUG [TrypAS 14 #AlternativeMS2 #Zipper #StaticStem] , please.
Reply: 34.6

Query: Observed apparent KD of MS2 coat protein on MS2 coat protein for CUCAUCCACGCGGCCGCCACUAUAUUGUGGUGUGGGUGUGACGUAUUACAUGAGGAUCACCCAUGUAGGACCGGGCGUGGAUGAG [Stork] , please.
Reply: 1100

Query: Observed apparent KD of MS2 coat protein on MS2 coat protein for GGCGUGGUCGGAAGGAGCGACAUGAGGAUCACCCAUGUCUCCCGUUAUGGGAGUUCCUUAGGUCAGGUAGGUCGCCGACUGCGGC [#1 Exclusion - Arginine B Attempt #22 (Inspired by Omei)] , please.
Reply: 326

Query: Observed apparent KD of MS2 coat protein on MS2 coat protein for GGGUAUGAUCCGGAUACCAGCGAACAUGAGGAUCACCCAUGUGACCUAAGAUAGGCUCUACGCCCUUGGCAGCCGCGAUCGCAGA [Same State Theophylline B GF9] , please.
Reply: 13.3

Where do the numbers come from? From the supplement of paper PMC9170038.
